# tested.target: mouse nerve growth factor (mouse, UniProt P01139 122-241)
# Sequence (P01139 122-241): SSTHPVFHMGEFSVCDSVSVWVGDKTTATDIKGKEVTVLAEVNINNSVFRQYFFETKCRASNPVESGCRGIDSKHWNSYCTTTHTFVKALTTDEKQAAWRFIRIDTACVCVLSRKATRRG
# experiment.description: cell-based or functional assay
Recorded IC50, FLIPR calcium mobilisation, one value per entry.
Answer with a number only, understood to be in nM.

Consider the following illustrative entries.
binder="1126F1 human IgG4 (antibody, V domains shown) VH: EVQLVQTGAEVKKPGSSVKVSCKASGGTFSTYGISWVRQAPGQGLEWIGGIIPIFDTGNSAQSFQGRVTITADESTSTAYMEVSSLRSDDTAVYYCASSSRIYDANRQAVPYYDMDVWGQGTMVTVSS VL: QAVLTQPSSVSTPPGQMVTISCSGSSSDIGNNYVSWYQQLPGTAPKLLIYDNNKRPSGIPDRFSGSKSGTSATLGITGLQTGDEADYYCGTWDSSLSAWVFGGGTKLTVL" measured_property="IC50, FLIPR calcium mobilisation" recorded_measurement=0.22
binder="1083H4 human IgG4 (antibody, V domains shown) VH: QMQLVQSGAEVKKTGSSVKVSCKASGYTFAYHYLHWVRQAPGQGLEWMGGIIPIFGTTNYAQRFQDRVTITADESTSTAYMELSSLRSEDTAVYYCASADYVWGSYRPDWYFDLWGRGTMVTVSS VL: QSVLTQPPSASGTPGQRVTISCSGSSSNIGSNTVNWYQRLPGAAPQLLIYNNDQRPSGIPDRFSGSKSGTSGSLVISGLQSEDEADYYCASWDDSLNGRVFGGGTKLTVL" measured_property="IC50, FLIPR calcium mobilisation" recorded_measurement=54

Now for the binder whose IC50, FLIPR calcium mobilisation we want.
**Query** I would be grateful if you could share the reported IC50, FLIPR calcium mobilisation for 1126H5 human IgG4 (antibody, V domains shown) VH: EVQLVQSGAEVKKPGSSVKVSCKASGGTFSTYGISWVRQAPGQGLEWIGGIIPIFDAGNSAQSFQGRVTITADESTSTAHMEVSSLRSEDTAVYYCASSSRIYDHHIQKGGYYDMDVWGQGTMVTVSS VL: QAVLTQPSSVSTPPGQKVTISCSGSSSNIGNNYVSWYQQLPGTAPKLLIYDNNKRPSGIPDRFSGSKSGTSATLGITGLQTGDEADYYCGTWDSSLSAWVFGGGTKLTVL .
**Result** 0.23
